Data credit: the METLIN SMRT retention time set (Domingo-Almenara et al. 2019)

experiment: gradient 5% acetonitrile 3 min, to 50% in 2 min, to 85% in 15 min, held 3 min, 100 µL/min; conditions: column: Zorbax Extend-C18 2.1 x 50 mm; eluents: water / acetonitrile, 0.1% formic acid
Binary classification by RP-LC retention time, with 800 s as an inclusive lower bound for label 1; all other cases are label 0.

Solved entries (count: 8):
1. CC(C)n1cnc2cc(CNC(=O)c3ccc(C#N)cc3)ccc21    label 0
2. CCOc1ccc(C(=O)N2CCC3(C2)C(=O)Nc2ccccc23)cc1 (stereo not given)    label 0
3. CC(C)Oc1ccc(CNC(=O)c2cc(-c3ccncc3)cn2C)cc1    label 0
4. O=C(NCc1ccccc1)N1CC(Oc2cccc(-c3nc(-c4ccccc4)no3)c2)C1    label 1
5. O=C(CN1CCN(C(=O)Cc2cccs2)CC1)c1ccco1    label 0
6. O=C(Cc1c[nH]c2ncccc12)NC1CCN(Cc2ccccc2)CC1    label 0
7. CCCS(=O)(=O)c1nc2ccc(NS(=O)(=O)c3cccc(F)c3)cc2s1    label 1
8. Cc1ncc2c(n1)C[C@@H]1CC[C@H]2N1C(=O)c1ccnn1C    label 0

Prompt line: Is RP-LC retention time at least 800 s? Consider CN(C)C(=O)c1ccc2c(c1)nc(CN1CCN(C(=O)c3cccs3)CC1)n2C
Response line: label 0

Prompt line: Can CC1CCN(S(=O)(=O)c2nn(Cc3ccccc3)cc2C(=O)O)CC1 be said to have RP-LC retention time at or above 800 s?
Response line: label 1

Prompt line: Textbook exercise: given the entry Fc1cc(F)cc(-c2nnc(Cc3nc(-c4ccc(Br)cc4)no3)o2)c1 , state whether its RP-LC retention time is greater than or equal to 800 s.
Response line: label 1

Prompt line: Is RP-LC retention time at least 800 s? Consider CCCOC(=O)C1=C(C)NC2=C(C(=O)C(C(=O)OC)C(C)C2)C1c1ccc(N(C)C)cc1 (stereo not given)
Response line: label 0

Prompt line: I'd appreciate it if you could say whether Cc1cnc(C(=O)N[C@@H]2CCC[C@@H]2C(=O)NC2CCCC2)cn1 has RP-LC retention time at least equal to 800 s.
Response line: label 0

Prompt line: Is it the case that COC(=O)c1ccc(-c2nc3cnccn3c2Nc2ccc(C)cc2Br)cc1 has RP-LC retention time reaching or exceeding 800 s?
Response line: label 1

Prompt line: Check this compound for RP-LC retention time at or above 800 s: COC(=O)Nc1ccc(S(=O)(=O)Nc2nc(C)cc(C)n2)cc1
Response line: label 0

Prompt line: Reported RP-LC retention time reaches at least 800 s for O=C(COc1ccccc1-c1nnc(-c2ccccc2)o1)NCc1ccc2c(c1)OCO2 ?
Response line: label 1

Prompt line: // inclusive: RP-LC retention time at least 800 s? input: CCCC(=O)Nc1ccc(CCc2nc3ccc(C(=O)NCCC(C)C)cc3[nH]2)cc1
Response line: label 0
